Source: patent US20240238423A9

# EXPERIMENTAL_SYSTEM: Human BCL-XL protein (N-terminal HiBiT tagged BCL-XL in HT1080 cells) (Homo sapiens)
# Construct: expressed in transfected cells; host or cells: HT-1080 (ATCC CCL-121), stably transduced with lentivirus pLV-UBC-N-HiBiT-BCL-XL-PGK-puro and selected with puromycin
# Sequence (Q07817 whole entry): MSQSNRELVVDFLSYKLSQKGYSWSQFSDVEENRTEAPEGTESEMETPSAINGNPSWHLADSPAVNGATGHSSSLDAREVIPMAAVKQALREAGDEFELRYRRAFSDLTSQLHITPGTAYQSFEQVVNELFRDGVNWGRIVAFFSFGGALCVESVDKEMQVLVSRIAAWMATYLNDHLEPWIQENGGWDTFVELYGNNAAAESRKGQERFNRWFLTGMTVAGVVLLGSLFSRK
# ASSAY_PROTOCOL: HiBiT based degradation assay
# Assay type: cell-based
# CONDITION_SET: BCL-XL degradation normalized with DMSO control; HT1080 cells expressing HiBiT-BCL-XL; 24 h
# Method: Human BCL-XL protein coding open reading frame fused with N-terminal HiBiT coding sequence was synthesized from Integrated DNA Technologies (IDT). […] HT1080 cells expressing N-terminal HiBiT tagged BCL-XL were dispensed into a 384-well plate pre-spotted with compounds at varying concentrations. […] After incubation, luminescence was read on a PHERAstar FSX Plate Reader (BMG). […]
READOUT_NAME: Ymin (24 h)

Cc1c(O[C@H]2CC[C@H](CCCN3CCN(c4ccc5c(C6CCC(=O)NC6=O)nn(C)c5c4)CC3)CC2)cccc1-c1ccc(N2CCc3cccc(C(=O)Nc4nc5ccccc5s4)c3C2)nc1C(=O)O (stereo partly drawn) [Compound 148a]	A (Ymin < 50%)
Cc1c(O[C@H]2CC[C@H](CCCN3CCN(c4ccc5c(C6CCC(=O)NC6=O)nn(C)c5c4)[C@@H](C(F)(F)F)C3)CC2)cccc1-c1ccc(N2CCc3cccc(C(=O)Nc4nc5ccccc5s4)c3C2)nc1C(=O)O (stereo partly drawn) [Compound 301a]	A (Ymin < 50%)
Cc1c(O[C@H]2CC[C@H](CCCC(=O)N3CCN(c4cccc5c(C6CCC(=O)NC6=O)nn(C)c45)CC3)CC2)cccc1-c1ccc(N2CCc3cccc(C(=O)Nc4nc5ccccc5s4)c3C2)nc1C(=O)O (stereo partly drawn) [Compound 214a]	B (50% ≤ Ymin < 70%)
Cc1c(OCCC2CCN(CCC3CCN(c4ccc5c(C6CCC(=O)NC6=O)nn(C)c5c4)CC3)CC2)cccc1-c1ccc(N2CCc3cccc(C(=O)Nc4nc5ccccc5s4)c3C2)nc1C(=O)O (stereo not drawn) [Compound 223]	A (Ymin < 50%)
Cc1c(O[C@H]2CC[C@H](CCC(C)(C)N3CCN(c4cccc5c(C6CCC(=O)NC6=O)nn(C)c45)CC3)CC2)cccc1-c1ccc(N2CCc3cccc(C(=O)Nc4nc5ccccc5s4)c3C2)nc1C(=O)O (stereo partly drawn) [Compound 341a]	A (Ymin < 50%)
Cc1c(O[C@H]2CC[C@H](CCCN3CCN(c4ccc5c(C6CCC(=O)NC6=O)nn(C)c5c4)[C@H](C(F)(F)F)C3)CC2)cccc1-c1ccc(N2CCc3cccc(C(=O)Nc4nc5ccccc5s4)c3C2)nc1C(=O)O (stereo partly drawn) [Compound 301b]	B (50% ≤ Ymin < 70%)
Cc1c(OCCCC2(C)CCN(CC(=O)Nc3ccc4c(C5CCC(=O)NC5=O)nn(C)c4c3)CC2)cccc1-c1ccc(N2CCc3cccc(C(=O)Nc4nc5ccccc5s4)c3C2)nc1C(=O)O (stereo not drawn) [Compound 267]	A (Ymin < 50%)
Cc1c(O[C@H]2CC[C@H](CCN3CCN(c4ccc5c(C6CCC(=O)NC6=O)nn(C)c5c4)CC3)CC2)cccc1-c1ccc(N2CCc3cccc(C(=O)Nc4nc5ccccc5s4)c3C2)nc1C(=O)O (stereo partly drawn) [Compound 211a]	B (50% ≤ Ymin < 70%)
Cc1c(Oc2ccc(CCCC(=O)N3CCN(c4cccc5c(C6CCC(=O)NC6=O)nn(C)c45)CC3)cc2)cccc1-c1ccc(N2CCc3cccc(C(=O)Nc4nc5ccccc5s4)c3C2)nc1C(=O)O (stereo not drawn) [Compound 191]	B (50% ≤ Ymin < 70%)
